Recorded values, source ChEMBL document CHEMBL3988442.

# studyTarget: Shiga toxin 2 (Escherichia coli O157:H7) (UniProt P09385+P09386)
# experimentalProtocol: E. coli 0.157:H7 Shiga Toxin SOP - stx2 screening assay
# Assay type: functional
# Design: scale not given: direction of the effect not stated beside the values
# experimentalConditions: 30 µM
measuredAttribute: Percent Effect (%)
Express your answer in %, writing the number without its unit.

Example compounds with recorded Percent Effect:
INSERT INTO assay_data (compound, measuredattribute, testvalue) VALUES
  ('CCOc1ccnc(N2CCN(C(=O)C(C)(C)C#N)CC2)n1', 'Percent Effect', 37.3),
  ('O=C(NCCn1nc2ccccn2c1=O)c1cccc2[nH]ncc12', 'Percent Effect', -25.7),
  ('CC(C)N1CCO[C@H]2CN(C(=O)c3ccc(N(C)C)cc3)C[C@H]21', 'Percent Effect', -4.13),
  ('Cc1cccc(-c2ccc(C(=O)NCC(C)(C)C(N)=O)c(=O)[nH]2)c1', 'Percent Effect', -21.6),
  ('Cc1nc(CCC(=O)NC2CCC2)cc(C2CCNCC2)n1', 'Percent Effect', -6.49);

Note to self: Percent Effect recorded for Cc1cc(NC(=O)NCCc2cccs2)n(C)n1 was -38.4

Note to self: Percent Effect recorded for Cc1cc(C)n(CC(C)CNC(=O)[C@@H](C)NC(=O)OC(C)(C)C)n1 (stereo partly specified) was 9.62

Form field Percent Effect, entry CC(=O)N(Cc1ncc(C)o1)C1CCN(Cc2noc(C)n2)C1 (stereo unspecified) : 4.63

Record COc1cc(C(=O)N2CCC(c3n[nH]c(C4CC4)n3)CC2)ccc1C . Reported Percent Effect: 3.06

The reported Percent Effect of the compound O=C(CCc1nccs1)N1CCN(c2cccnn2)CC1 was 12.9

Note to self: Percent Effect recorded for Cn1cc(C2COC3(CCN(C(=O)c4ccc(F)cc4)CC3)C2)cn1 (stereo unspecified) was 4.34

====

# studyTarget: Aspartate--tRNA(Asp/Asn) ligase (Mycobacterium tuberculosis (strain ATCC 25618 / H37Rv)) (UniProt P9WFW3); further: in the data most compounds retested in dose-response had high values
# Sequence (whole entry): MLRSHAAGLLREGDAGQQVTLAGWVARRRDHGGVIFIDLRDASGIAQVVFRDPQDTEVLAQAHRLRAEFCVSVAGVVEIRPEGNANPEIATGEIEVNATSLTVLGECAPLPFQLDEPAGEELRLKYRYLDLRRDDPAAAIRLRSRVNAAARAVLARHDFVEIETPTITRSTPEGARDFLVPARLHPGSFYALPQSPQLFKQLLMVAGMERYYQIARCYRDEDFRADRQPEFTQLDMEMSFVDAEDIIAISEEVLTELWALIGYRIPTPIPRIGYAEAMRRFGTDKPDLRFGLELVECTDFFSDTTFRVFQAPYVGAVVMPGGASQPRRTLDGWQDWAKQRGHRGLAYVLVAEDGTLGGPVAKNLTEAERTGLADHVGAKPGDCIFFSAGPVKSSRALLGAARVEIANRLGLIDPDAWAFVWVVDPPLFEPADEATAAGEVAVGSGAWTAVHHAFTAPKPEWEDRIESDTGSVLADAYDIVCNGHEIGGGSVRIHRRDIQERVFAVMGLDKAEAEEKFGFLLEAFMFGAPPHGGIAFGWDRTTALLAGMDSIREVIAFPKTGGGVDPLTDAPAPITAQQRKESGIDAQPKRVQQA
# experimentalProtocol: Assay for Asp RNA synthetase-1 from Mycobacterium tuberculosis
# Format: functional
# Design: scale not given: direction of the effect not stated beside the values
# experimentalConditions: 30 µM
Percent Effect by entry:
# output: bare number, implied unit %

# example entries with known answers
INSERT INTO results (molecule, unitdescriptor, testvalue) VALUES
  ('Cc1cnn(CCNCC(O)COc2ccc(C#N)cc2)c1 (stereo not drawn)', '%', 1.2),
  ('O=C1N(c2cccc(Cl)c2)Cc2nc(=O)n(Cc3cccc(F)c3)n21', '%', 6.56);

Entry COc1c(C2CCCN2C(=O)c2ccc3cc[nH]c3c2)c(C)nn1C (stereo not drawn) ; Percent Effect = -1.15

Briefly, Percent Effect measured for CC(C)N(Cc1cccc(F)c1)Cc1nc2c(cnn2C)c(=O)[nH]1 : -5.3

Entry Cc1cc(C)n(CC2CCCCN2C(=O)c2ccc3c(c2)OCO3)n1 (stereo not drawn) , Percent Effect reported as -5.57

Lab note: O=C(c1ccnnc1)N1CCN2C[C@H](Oc3cccc(F)c3)C[C@H]2C1 gave Percent Effect of -0.611

According to the records, this molecule Cc1cnn(CC2CCCN2Cc2coc(-c3cccs3)n2)c1 (stereo not drawn) displays Percent Effect of 1.41

Percent Effect for CN(C)C(=O)CN1C[C@@H]2CC[C@H](C1)N(C(=O)CCn1cncn1)C2 is 1.04

Value of measured Percent Effect for the entry O=C(NCC1CCOCC1)[C@H]1C[C@@H]2CCN(Cc3ccncc3)C[C@@H]2O1 : 2.48

Just so you know, measured Percent Effect for Cc1cn(-c2ccccc2)nc1NS(=O)(=O)c1cc(C(=O)O)cs1 came out at 5.52

Reported Percent Effect ( COc1ccc(C(=O)N2Cc3c(Cn4ccnc4)nn(C)c3C2)cc1 ) = -10.7

Quick note, Percent Effect for Cc1n[nH]c2c1C(c1ccc(O)c(Cl)c1)SCC(=O)N2 (stereo not drawn) landed at -0.755

====

// reported Percent Effect per item
# studyTarget: Shiga toxin 2 (Escherichia coli O157:H7) (UniProt P09385+P09386)
# experimentalProtocol: E. coli 0.157:H7 Shiga Toxin SOP - stx2 screening assay
# Format: functional
# Design: scale not given: direction of the effect not stated beside the values
# experimentalConditions: 30 µM
State just the number; it will be interpreted in %.

Examples with their reported Percent Effect follow.
INSERT INTO results (molecule, studytarget, measuredattribute, unitdescriptor, testvalue) VALUES
  ('CC(=O)Nc1ccc(S(=O)(=O)NC(=O)CCC2CCCO2)cc1 (stereo unspecified)', 'Shiga toxin 2 (Escherichia coli O157:H7) (UniProt P09385+P09386)', 'Percent Effect', '%', -2.77),
  ('COc1cccc(S(=O)(=O)NC(=O)COc2c(C)cccc2C)c1', 'Shiga toxin 2 (Escherichia coli O157:H7) (UniProt P09385+P09386)', 'Percent Effect', '%', 6.76),
  ('Cc1cc(C)n(C2CCCN(C(=O)C3=NN(C)C(=O)CC3)C2)n1 (stereo unspecified)', 'Shiga toxin 2 (Escherichia coli O157:H7) (UniProt P09385+P09386)', 'Percent Effect', '%', 17.2);

Percent Effect reading for CNC(=O)CS(=O)(=O)Cc1coc(-c2ccc(F)cc2)n1 : -3.77

// Percent Effect lookup, molecule = c1coc(CN2CCCC3(COCCN(Cc4c[nH]nn4)C3)C2)c1 (stereo unspecified) , result: 4.89

// recorded Percent Effect for Cn1ncc2c(N3CCN(C(N)=O)CC3)nc(C3CCCC3)nc21 : -24.2

Field Percent Effect (entry COc1cccc(CCNC(=O)CN2CCN(C)CC2C)c1 (stereo unspecified) ) reads 20

Form: molecule = COc1ccc2cc(C(=O)N3CCCCC3Cn3cccn3)[nH]c2c1 (stereo unspecified) ; Percent Effect = 16.3

// sample Cc1nc(CN2CCCC(NCCOCC(F)(F)F)C2)no1 (stereo unspecified) , its Percent Effect was -8.56

Quick note, Percent Effect for COc1ccc(-c2nnc(SC(C)C(=O)NC3CC3)[nH]2)c(OC)c1 (stereo unspecified) landed at 7.63

Given item O=C1COC2(CCN(Cc3ccccn3)CC2)CN1CC1CC1 , the value recorded as its Percent Effect is -7.99

====

Reported Percent Effect is given for each of the following molecules.
# studyTarget: Shiga toxin 2 (Escherichia coli O157:H7) (UniProt P09385+P09386)
# experimentalProtocol: E. coli 0.157:H7 Shiga Toxin SOP - stx2 screening assay
# Assay type: functional
# Design: scale not given: direction of the effect not stated beside the values
# experimentalConditions: 30 µM
Put your answer as a value accompanied by its unit after it.

INSERT INTO results (molecule, measuredattribute, testvalue) VALUES
  ('COc1cccn(CC(=O)N(C)CCOc2cc(C)cc(C)c2)c1=O', 'Percent Effect', '-20.3%'),
  ('Cc1cccc(CNC(=O)CNc2cc(CO)ccc2Cl)c1', 'Percent Effect', '0.559%'),
  ('NCC1Cn2nnc(-c3cccc(F)c3)c2CO1 (stereo not given)', 'Percent Effect', '-69.1%'),
  ('N#Cc1cccc(S(=O)(=O)NC(=O)COC2CCCC2)c1', 'Percent Effect', '-31%'),
  ('CN1N=C(C(=O)N(Cc2ccco2)C2CC2)CCC1=O', 'Percent Effect', '1.36%');

get_value(item= CNC(=O)c1cnc(/C=C/c2cc(OC)cc(OC)c2)s1 , readout=Percent Effect) returns -89.3%

For reference, reported Percent Effect for Cc1ncoc1C(=O)N1C[C@H]2CCC[C@@]2(COCC2CCOCC2)C1 stands at 3.67%

// sample CN(Cc1ccc2c(c1)OCCO2)C(=O)NCCc1cnn(C)c1 , its Percent Effect was 26.7%

The value of Percent Effect measured for the molecule Cc1ccc(-c2cc(CN3CCOC(Cn4cncn4)C3)on2)cc1 (stereo not given) turned out to be -14%

The molecule identified as CNc1cc(C2CCCN2C(=O)c2ccc3oc(=O)n(C)c3c2)ccn1 (stereo not given) registered its Percent Effect at 7%

# Percent Effect of CCn1c(C)cc(C(=O)N2CCCC(n3nc(C)nc3C)C2)c1C (stereo not given) = 16%

Percent Effect in this record for COc1c(C)cnc(CN2CCC(C(=O)N(C)C)CC2)c1C : 10.2%

// Percent Effect lookup, molecule = CC(NC(=O)NCCCn1cccn1)c1ccc2c(c1)NC(=O)CO2 (stereo not given) , result: -20.8%
